target: T1, human plasma kallikrein (human, UniProt P03952 20-390; P03952 391-638); experiment: Ki,app, inhibition of human pKal enzyme activity
T1 construct: two disulfide-linked chains; also called pKal; human pKal
T1 sequence (P03952 20-390, chain 1 of 2): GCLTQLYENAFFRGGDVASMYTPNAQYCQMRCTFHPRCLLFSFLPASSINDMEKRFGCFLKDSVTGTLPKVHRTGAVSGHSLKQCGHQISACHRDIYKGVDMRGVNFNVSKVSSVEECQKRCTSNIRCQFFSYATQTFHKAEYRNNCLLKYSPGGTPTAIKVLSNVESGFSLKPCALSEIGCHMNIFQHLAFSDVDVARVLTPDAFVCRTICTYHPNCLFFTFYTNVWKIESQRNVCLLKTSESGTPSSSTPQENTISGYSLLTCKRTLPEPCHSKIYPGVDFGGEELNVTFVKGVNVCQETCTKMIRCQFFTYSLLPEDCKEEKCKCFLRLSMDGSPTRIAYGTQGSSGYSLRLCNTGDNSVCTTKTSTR
T1 sequence (P03952 391-638, chain 2 of 2): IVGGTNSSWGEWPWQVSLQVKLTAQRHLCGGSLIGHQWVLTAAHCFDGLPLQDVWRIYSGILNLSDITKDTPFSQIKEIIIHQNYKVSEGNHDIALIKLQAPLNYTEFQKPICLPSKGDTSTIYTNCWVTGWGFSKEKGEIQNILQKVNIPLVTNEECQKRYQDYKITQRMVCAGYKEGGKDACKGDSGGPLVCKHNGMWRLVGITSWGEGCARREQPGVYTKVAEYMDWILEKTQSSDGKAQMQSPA
This section presents binders with their documented Ki values.
Could you give me the number in nM? Just the number is fine.

Worked set:
M208-F10 (Fab, V domains shown, Tested as Fab; printed HC runs into CH1; amber q written Q) VH: EVQLLESGGGLVQPGGSLRLSCAASGFTFSHYLMTWVRQAPGKGLEWVSYISPSGGHTIYADSVKGRFTISRDNSKNTLYLQMNSLRAEDTAVYYCARVARGIAARSRTSYFDQWGQGTLVTVSS VL: DIQMTQSPGTLSLSPGERATLSCRTSQFVNSNYLAWYQQTPGQAPRLLIYGASSRATGIPDRFSGTGYGTDFTLTISRLEPEDYGTYYCQQSSRTPWTFGQGTRVEIK	0.2
M208-H02 (Fab, V domains shown, Tested as Fab; printed HC runs into CH1) VH: EVQLLESGGGLVQPGGSLRLSCAASGFTFSHYLMTWVRQAPGKGLEWVSYISPSGGHTIYADSVKGRFTISRDNSKNTLYLQMNSLRAEDTAVYYCARVARGIASRSRTRYCDYWGQGTLVTVSS VL: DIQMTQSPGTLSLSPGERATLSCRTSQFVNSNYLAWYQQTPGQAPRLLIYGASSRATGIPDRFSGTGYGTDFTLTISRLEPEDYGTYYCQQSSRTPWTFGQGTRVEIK	0.2

Read the next record carefully.
Qu. Quick one: Ki of M210-H06 (Fab, V domains shown, Tested as Fab; printed HC runs into CH1) VH: EVQLLESGGGLVQPGGSLRLSCAASGFTFSHYLMTWVRQAPGKGLEWVSYISPSGGHTIYADSVKGRFTISRDNSKNTLYLQMNSLRAEDTAVYYCARVARGIAARSRTRYFDYWGQGTLVTVSS VL: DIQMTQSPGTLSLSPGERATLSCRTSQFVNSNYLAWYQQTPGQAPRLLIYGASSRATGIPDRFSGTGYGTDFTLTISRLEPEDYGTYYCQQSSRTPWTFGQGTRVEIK ?
Ans. 0.2
